TARGET_UNDER_TEST: PARP-1 F1+F2 (24-kDa DBD) (Homo sapiens, UniProt P09874 1-214)
Sequence (P09874 1-214): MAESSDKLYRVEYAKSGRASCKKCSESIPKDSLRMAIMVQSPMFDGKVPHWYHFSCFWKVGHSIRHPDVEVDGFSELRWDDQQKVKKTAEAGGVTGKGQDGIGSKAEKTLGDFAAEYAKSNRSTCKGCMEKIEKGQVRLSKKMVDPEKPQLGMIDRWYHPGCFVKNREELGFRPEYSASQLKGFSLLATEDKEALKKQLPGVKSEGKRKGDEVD
TEST_DESCRIPTION: fluorescence anisotropy; 100; 50 mM Tris-HCl pH 7.0, 150 uM ZnSO4, 4 mM DTT, 25 C; NaCl 0-200 mM (T2, as in cof; 10 nM DNA) or 25 mM (T3 mutants; 25 nM DNA)
MEASUREMENT_PARAMETERS: protein: recombinant; label: fluorescein-dT at T8; single-chain dumbbell, 18 bp with central nick, two tetraloops
MEASURED_ENDPOINT: pKd
One number for each entry, as −log10 of the molar value.

Query block: Record request: pKd value, item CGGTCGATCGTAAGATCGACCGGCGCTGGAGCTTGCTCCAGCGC (structured_DNA, 5'-phosphate) [44-nt nicked dumbbell, 5'-phosphate, fluorescein-dT]
Result block: 8.03

Source of measurements: paper PMC3094755
